- Measurement Target: Fibroblast growth factor 10 (Homo sapiens)
- Test Protocol: compounds binding fibroblast growth factor 10 – biochemical, small-molecule microarray, 635 nm fluorescence, primary screen (AID 1102)
- Assay Setup: FGF10 binding, fluorescence 635 nm, higher = more signal
Metric: composite z-score
Give only the figure.

Request: Fill in the blank: the reported composite z-score of O=C1OCCC=C[C@H]2OC34C=CCN(CCN5CCOCC5)C(=O)[C@H]3N(CCCCCO)C(=O)[C@@H]4C12 (stereo partly specified) is ____.
Result: -0.35

Request: Let us now turn to C#CCN(C/C=C/c1ccccc1)[C@H](CO)c1ccccc1
Result: 0.0797

Request: Same question, CO[C@H]1O[C@H](CO)[C@@H](OC(=O)Nc2ccccc2)[C@@H]2OC(=O)[C@@H](Cc3ccc4ccccc4c3)C/C=C/C[C@H](Cc3ccc4ccccc4c3)C(=O)O[C@@H]12 this time
Result: 1.08

Request: Same question, COc1ccc(CCNC(=O)[C@@]2(c3ccc([N+](=O)[O-])cc3)CC(=O)N(CC34CC5CC(CC(C5)C3)C4)[C@@H]2c2ccc(CO)cc2I)cc1 this time
Result: 1.15

Request: Consider next the compound NC(=O)[C@@H]1[C@H]2C(=O)O[C@H](c3ccccc3)[C@H](c3ccccc3)N2[C@H](c2ccc(OCCO)cc2)[C@@]12C(=O)Nc1ccc(C#CC3=CCCCC3)cc12 in the same way.
Result: 1.21

Request: What about this compound? COCCCNC(=O)[C@]1(Cc2ccccc2)N=C(c2ccc(OCCCO)cc2)O[C@@H]1c1ccccc1CN=[N+]=[N-]
Result: 1.49

Request: Would you mind doing C=CC[C@]1(C(=O)N2CCOCC2)N=C(c2ccc(OCCCO)cc2)O[C@H]1c1ccccc1N=[N+]=[N-] as well?
Result: 0.95

Request: Entry to check: [N-]=[N+]=Nc1ccccc1C[C@@]1(C(=O)N2CCCCC2)N=C(c2ccc(OCCCO)cc2)O[C@@H]1c1ccccc1N=[N+]=[N-]
Result: 0.914

Request: Another compound to check: COC(=O)[C@@]1(Cc2ccccc2)[C@H]2c3cc(C(=O)N4CCCC4)n(Cc4c(CO)[nH]cc(C)c4=O)c3C[C@H]2CN1C(=O)c1ccccc1
Result: 0.303

Request: Now give it for COc1cc(OC)c(C(O)C2C=CC3C(=O)NC(=O)C3N2Nc2ccccn2)cc1Br (stereo unspecified) too.
Result: 0.689

Request: Now the same for CCOC(=O)C[C@H]1[C@H](OC(=O)c2ccc(C(=O)c3ccccc3)cc2)[C@@H](NC(=O)Cc2ccc(OC)cc2)c2cc(OCCCO)ccc2N1C(=O)c1ccc2ccccc2n1
Result: 0.526

Request: Same question, COc1cc2c(cc1OC)CN(C(=O)[C@H]1[C@@H]3C(=O)O[C@@H](c4ccccc4)[C@@H](c4ccccc4)N3[C@@H](c3ccccc3OCCO)[C@]13C(=O)Nc1ccc(C#CCCO)cc13)CC2 this time
Result: 0.786

Request: Also need O=C1NC(=O)C2C1C=CC(C(O)C=Cc1ccc([N+](=O)[O-])cc1)N2Nc1ccc(Cl)cc1Cl (stereo unspecified) , thanks.
Result: 0.641

Request: Another compound to check: [N-]=[N+]=NCc1ccccc1[C@@H]1OC(c2ccc(OCCCO)cc2)=N[C@]1(CCS(=O)(=O)c1ccccc1)C(=O)N1CCCCC1
Result: 0.828

Request: Another compound to look at: C=C(CCCC)/C(=C/C[C@@H](OC(C)=O)c1cccc(OCCO)c1)c1cnc2ccccc2c1
Result: 1

Request: Then this compound: CO[C@H]1O[C@H](CO)[C@@H](OC(=O)Nc2ccc(Oc3ccccc3)cc2)[C@H](OC(=O)Nc2ccc3c(c2)OCO3)[C@@H]1OC(=O)Nc1ccc2c(c1)OCO2
Result: 1.17

Request: Would you mind doing COC(=O)C(CC#Cc1ccc2c(c1)[C@]1(C(=O)N2)[C@H](c2ccccc2OCCO)N2[C@H](c3ccccc3)[C@H](c3ccccc3)OC(=O)[C@H]2[C@@H]1C(N)=O)C(=O)OC as well?
Result: 0.376

Request: Moving on to CC1CC/C=C\[C@H]2OC34C=CCN(c5ccc6ccccc6c5)C(=O)[C@H]3N(CCO)C(=O)[C@@H]4C2C(=O)O1 (stereo partly specified)
Result: -0.681

Request: Same lookup for C=CC[C@]1(C(N)=O)COC(c2ccc(OCCCO)cc2)=N1 , please.
Result: 0.577

Request: Would you mind doing COCCCNC(=O)[C@@H]1c2ccccc2C(=O)N(Cc2ccccc2)[C@H]1c1ccc(CO)cc1 as well?
Result: 0.223

Request: CCCCCN1CC=CC23O[C@@H]4C=CCOC(=O)[C@@H]4[C@H]2C(=O)N(C(C)CO)[C@@H]3C1=O (stereo partly specified) , same question.
Result: -0.571
